Listed here: items and their measured Ratio [(IC50/nM) high HSA]/[(IC50/nM) low HSA].
measured-on: T1, human GLP-1 receptor (human, UniProt P43220 24-463)
T1 construct: whole, on cells; Used as purified plasma membranes of the stably transfected BHK cell line, not as intact cells; also called hGLP-1
protocol-details: SPA displacement assay; IC50 at 2.0% HSA over IC50 at 0.001% HSA
Numbered stars: 1 amine (or outer) side, 2 acyl side, 3 side chain; on linkers, the order of the positions; unused ones are H or OH. Side chains are listed from the residue outwards. Ends that are not written are not given here. * marks the point of attachment. Decanoyl(10-(4-HOOC-PhO)) = O=C(O)c1ccc(OCCCCCCCCCC(=O)*)cc1; γGlu = O=C(O)[C@H](CCC(=O)[*:2])N[*:1]; C14 diacid = O=C(O)CCCCCCCCCCCCC(=O)*; AEEA = NCCOCCOCC(=O)O
Field format: numeric only.

binder	observed
HAEGTFTSDVSSYLEEQK([γGlu-AEEA-AEEA-C14 diacid])ARK([γGlu-AEEA-AEEA-C14 diacid])FIAHLVG (also called 22)	87

Ratio [(IC50/nM) high HSA]/[(IC50/nM) low HSA] measured on HAEGTFTSDVSSYLEGQAAHK([AEEA-AEEA-γGlu-Decanoyl(10-(4-HOOC-PhO))])FIEWLVRGK([AEEA-AEEA-γGlu-Decanoyl(10-(4-HOOC-PhO))])GE (also called 10) = 70
